Values compiled from patent US20260116991A1.

study.system: T1, polypeptide GC3pep (human)
T1 construct: also called membrane proximal polypeptide GC3pep
T1 peptide: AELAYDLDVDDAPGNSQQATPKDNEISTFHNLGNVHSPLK
procedure.text: ELISA, GC3pep coated, antibody 100 nM;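 further: detection with an HRP-conjugated secondary antibody and TMB substrate, color reaction stopped with HCl before absorbance reading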
parameter: OD450 nm (OD450 nm)
Answer format: numeric, OD450 nm implied, no suffix.

**Query** Entry F1.41.17 (antibody, human IgG1, kappa, V domains shown, human-murine chimeric antibody) VH: EVQLVESGGDSVKPGGSLKLSCAASGFTFSSYGMSWVRQTPDKRLEWVATINSGGSYTYYQDSVKGRFTISRDNAKNTLYLQMSSLKSEDTAIYYCVRHHYGSSYDYFDYWGQGTTLTVSS VL: DIVMTQAAPSVPVMPGESVSISCRSSKSLLHSNGNTHLYWFLQRPGQSPQLLIYRMSNLASGVPDRFSGSGSGTAFTLRISRVEAEDVGVYYCMQHLEYPLTFGAGTKLELKR has what OD450 nm?
**Result** 0.06
